# Experimental Target: T1, extracellular domain of human TF protein (human, UniProt P13726 34-251)
# T1 construct: range 34-251; Limits 34-251 are stated for the immunogen; also called the extracellular domain protein of TF; TF antigen
# Test Method Notes: ELISA, coated TF extracellular domain
# Method: The antigen (the extracellular domain protein of TF) was diluted to 0.5 μg/mL with a coating solution, and was used to coat an ELISA plate overnight, at 100 μL/well and 4° C. The excessive antigen was removed by washing. […] 2M H₂SO₄ was added at 50 μL/well, to stop the chromogenic reaction, the absorbance at 450 nm was then determined, and the data was analyzed. […]
Listing of recorded EC50 by entry.
Just the number please, in nM, no unit attached.

Measured EC50, TF-mAb-H37 (antibody, V domains shown, Humanized) VH: QVQLVQSGAEVKKPGASVKVSCKASGYSFISYWMNWVRQAPGQGLEWIGMIYPADSETRLNQKFKDRATLTVDKSTSTAYMELSSLRSEDTAVYYCAREDYGSSDYWGQGTTVTVSS VL: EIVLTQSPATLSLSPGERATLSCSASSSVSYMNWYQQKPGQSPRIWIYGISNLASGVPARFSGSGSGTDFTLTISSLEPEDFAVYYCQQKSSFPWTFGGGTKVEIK : 0.0173
